# chromatographic logD per record follows
# protocol description: Chromatographic hydrophobicity, logD of the compound at pH 7.4 by fast-gradient RP-HPLC method
# Type: physicochemical
# conditions: buffer

{"chem smiles": "CC[C@H]1OC(=O)[C@H](C)[C@@H](O[C@H]2C[C@@](C)(OC)[C@@H](OCCCNC(C)=O)[C@H](C)O2)[C@H](C)[C@@H](O[C@@H]2O[C@H](C)C[C@H](N(C)C)[C@H]2O)[C@](C)(OC)C[C@@H](C)C(=O)[C@H](C)[C@@H](O)[C@]1(C)O", "chromatographic logD": 3.08}
{"chem smiles": "CC[C@H]1OC(=O)[C@H](C)[C@@H](O[C@H]2C[C@@](C)(OC)[C@@H](OC(=O)CN(CC)CC)[C@H](C)O2)[C@H](C)[C@@H](O[C@@H]2O[C@H](C)C[C@H](N(C)C)[C@H]2O)[C@](C)(OC)C[C@@H](C)C(=O)N[C@H](C)[C@@H](O)[C@]1(C)O", "chromatographic logD": 3.86}
{"chem smiles": "CC[C@H]1OC(=O)[C@H](C)[C@@H](O[C@H]2C[C@@](C)(OC)[C@@H](O)[C@H](C)O2)[C@H](C)[C@@H](O[C@@H]2O[C@H](C)C[C@H](N(C)C)[C@H]2O)[C@](C)(OC)C[C@@H](C)C(=O)[C@H](C)[C@@H](OCCCNC(C)=O)[C@]1(C)O", "chromatographic logD": 2.72}
{"chem smiles": "CC[C@H]1OC(=O)[C@H](C)[C@@H](O[C@H]2C[C@@](C)(OC)[C@@H](O)[C@H](C)O2)[C@H](C)[C@@H](O[C@@H]2O[C@H](C)C[C@H](N(C)C)[C@H]2OCCCNC(=O)COC)[C@](C)(O)C[C@@H](C)CN(C)[C@H](C)[C@@H](O)[C@]1(C)O", "chromatographic logD": 2.54}
{"chem smiles": "CC[C@H]1OC(=O)[C@H](C)[C@@H](O[C@H]2C[C@@](C)(OC)[C@@H](O)[C@H](C)O2)[C@H](C)[C@@H](O[C@@H]2O[C@H](C)C[C@H](N(C)C)[C@H]2O)[C@](C)(O)C[C@@H](C)CN(CCCNC(C)=O)[C@H](C)[C@@H](O)[C@]1(C)O", "chromatographic logD": 2.06}
{"chem smiles": "CC[C@H]1OC(=O)[C@H](C)[C@@H](O[C@H]2C[C@@](C)(OC)[C@@H](O)[C@H](C)O2)[C@H](C)[C@@H](O[C@@H]2O[C@H](C)C[C@H](N(C)C)[C@H]2O)[C@](C)(OC)C[C@@H](C)/C(=N\\O)[C@H](C)[C@@H](O)[C@]1(C)OCCCNC(C)=O", "chromatographic logD": 2.94}
{"chem smiles": "CCCCCCCC(=O)NCCCN1C[C@H](C)C[C@@](C)(O)[C@H](O[C@@H]2O[C@H](C)C[C@H](N(C)C)[C@H]2O)[C@@H](C)[C@H](O)[C@@H](C)C(=O)O[C@H](CC)[C@@](C)(O)[C@H](O)[C@H]1C", "chromatographic logD": 3.08}
{"chem smiles": "CC[C@H]1OC(=O)[C@H](C)[C@@H](O)[C@H](C)[C@@H](O[C@@H]2O[C@H](C)C[C@H](N(C)C)[C@H]2O)[C@](C)(OC)C[C@@H](C)/C(=N\\O)[C@H](C)[C@@H](O)[C@]1(C)O", "chromatographic logD": 2.31}
